Assay: logP by reversed-phase HPLC (EEC Directive 79/831 Annex V.A8)
Type: physicochemical
Details: HPLC C18, 40° C., 0.1% aqueous formic acid / acetonitrile gradient

smiles.str: Cc1ccc(C(=NOCc2csc(NC(=O)C3CCCC3)n2)n2nnnc2C)o1
LogP: 2.98
--
smiles.str: Cc1nnnn1C(=NOCc1csc(NC(=O)c2ccccc2)n1)c1ccc(Br)s1
LogP: 3.61
--
smiles.str: Cn1nnnc1C(=NOCc1cccc(NC(=O)Cc2ccccc2)n1)c1csc(-c2ccccc2)n1
LogP: 3.72
--
smiles.str: Cc1ccc(C(=NOCc2csc(N)n2)n2nnnc2C)o1
LogP: 1.47
--
smiles.str: Cc1nnnn1C(=NOCc1csc(NC(=O)C2CC2)n1)c1ccc(-c2ccc(Cl)c(Cl)c2)o1
LogP: 3.83
--
smiles.str: COCCOCC(=O)Nc1nc(CON=C(c2ccc(C)s2)n2nnnc2C)cs1
LogP: 2.6
--
smiles.str: Cc1nnnn1C(=NOCc1csc(NC(=O)C2CCCC2)n1)c1ccsc1Cl
LogP: 3.3
--
smiles.str: CCCC(=O)Nc1nc(CON=C(c2cc(-c3ccccc3)c(Cl)s2)n2nnnc2C)cs1
LogP: 4.18
--
smiles.str: Cc1nnnn1C(=NOCc1csc(NC(=O)NC2CCCC2)n1)c1ccsc1
LogP: 2.65
--
smiles.str: Cc1nnnn1C(=NOCc1csc(NC(=O)C2CCCC2)n1)c1ccc(Br)s1
LogP: 3.66
--
smiles.str: Cc1nnnn1C(=NOCc1csc(NC(=O)C(C)(C)C)n1)c1ccc(Br)s1
LogP: 3.74
--
smiles.str: Cc1nnnn1C(=NOCc1csc(NC(=O)CCc2ccccc2)n1)c1ccsc1Cl
LogP: 3.45
--
smiles.str: Cc1nnnn1C(=NOCc1csc(N)n1)c1ccc(-c2ccc(Cl)c(Cl)c2)o1
LogP: 2.83
--
smiles.str: Cc1nnnn1C(=NOCc1csc(NC(=O)Cc2ccccc2)n1)c1ccc(-c2ccccc2)s1
LogP: 4.08
--
smiles.str: Cc1nnnn1C(=NOCc1csc(NC(=O)c2ccccc2)n1)c1ccsc1Cl
LogP: 3.26
--
smiles.str: Cc1nnnn1C(=NOCc1csc(N)n1)c1ccc(Cl)s1
LogP: 2.02
--
smiles.str: CCCC(=O)Nc1nc(CON=C(c2ccc(C)s2)n2nnnc2C)cs1
LogP: 2.88
--
smiles.str: Cc1nnnn1C(=NOCc1csc(NC(=O)CCCCl)n1)c1ccsc1Cl
LogP: 3

----------
Experiment: logP by reversed-phase HPLC (EEC Directive 79/831 Annex V.A8)
Type: physicochemical
Conditions: HPLC C18, 40° C., 0.1% aqueous formic acid / acetonitrile gradient
Recorded LogP, one value per entry.

smiles.str: Cc1ccc(C(=NOCc2csc(NC(=O)NCc3ccccc3)n2)n2nnnc2C)s1
LogP: 3.17
//
smiles.str: CCCCCC(=O)Nc1nc(CON=C(c2ccc(Br)s2)n2nnnc2C)cs1
LogP: 3.92
//
smiles.str: Cn1nnnc1C(=NOCc1csc(NC(=O)C(C)(C)C)n1)c1csc(-c2ccccc2)n1
LogP: 3.62
//
smiles.str: CCCCCC(=O)Nc1nc(CON=C(c2ccc(C)s2)n2nnnc2C)cs1
LogP: 3.76
//
smiles.str: Cc1nnnn1C(=NOCc1csc(NC(=O)C2CC2)n1)c1ccc(Cl)s1
LogP: 3
//
smiles.str: Cc1nnnn1C(=NOCc1csc(NC(=O)C2CCCCC2)n1)c1ccsc1
LogP: 3.32
//
smiles.str: Cc1ccc(C(=NOCc2csc(NC(=O)C3CC3)n2)n2nnnc2C)o1
LogP: 2.41
//
smiles.str: Cc1nnnn1C(=NOCc1csc(NC(=O)CCCc2ccccc2)n1)c1ccc(Br)s1
LogP: 4.04
